assay: small-molecule microarray binders of probe aNog, primary screen, biochemical, biotinylated probe, 635/667 nm fluorescence (AID 1115); conditions: higher = more signal;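 further: probe is biotinylated aNog protein used at 0.15 µg/mL for 1 h at 4 C; z-score combines 667 nm fluorescence of each spot with its signal to noise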
Listed here are molecules together with their documented composite z-score.
No unit in the answer, only the number.

Query: Which value of composite z-score has been reported for C=CCOC(=O)[C@H]1[C@@H]2C(=O)O[C@@H](c3ccccc3)[C@@H](c3ccccc3)N2[C@@H](c2ccc(OCCOC(=O)[C@@H]3C[C@@H]4C(=O)N[C@@H](Cc5ccccc5)C(=O)N4[C@@H]3c3ccc(O)cc3)cc2)[C@]12C(=O)Nc1ccc(I)cc12 in the records?
Result: -0.432

Query: Please give the measured composite z-score for this molecule: C=CCOC(=O)[C@@H]1[C@H]2C(=O)O[C@H](c3ccccc3)[C@H](c3ccccc3)N2[C@H](c2ccc(OCCOC(=O)[C@H]3C[C@H]4C(=O)N[C@@H](CCCCN(C)C)C(=O)N4[C@H]3c3cccc(OCCO)c3)cc2)[C@@]12C(=O)Nc1ccccc12
Result: 0.511

Query: Look up composite z-score for this molecule: CCOC(=O)C[C@H]1[C@H](OC(=O)c2cc3ccccc3oc2=O)[C@@H](NC(=O)Cc2ccc(OC)cc2)c2cc(OCCCO)ccc2N1C(=O)Cc1ccc(OC)cc1
Result: -0.0428

Query: Request the reported composite z-score associated with COCCCNC(=O)[C@@]1(Cc2ccccc2I)c2ccccc2C(=O)N(Cc2ccccc2OC)[C@H]1c1ccc(CO)cc1
Result: -0.537

Query: Item CCc1cccc(NC(=O)O[C@H]2[C@H](OC(=O)Nc3ccccc3-c3ccccc3)[C@H](OC(=O)Nc3ccccc3-c3ccccc3)[C@@H](OC)O[C@@H]2CO)c1 has what recorded composite z-score?
Result: -0.318

Query: // lookup composite z-score for O=C(N1CCOCC1)[C@]1(CCS(=O)(=O)c2ccccc2)N=C(c2ccc(OCCCO)cc2)O[C@@H]1c1ccccc1
Result: -0.087

Others:
Query: Give its composite z-score value. Item: Cc1ccc(S[C@]2(C(=O)NCc3ccccc3)CC(=O)N(Cc3ccccc3Cl)[C@@H]2c2ccc(CO)cc2)cc1
Result: 0.308

Query: # lookup: composite z-score of COc1cc2c(cc1OC)CN(C(=O)[C@@H]1[C@H]3C(=O)O[C@H](c4ccccc4)[C@H](c4ccccc4)N3[C@H](c3ccc(O)cc3)[C@@]13C(=O)Nc1ccc(C#CC4=CCCCC4)cc13)CC2
Result: 0.14

Query: What value of composite z-score has been reported for the following molecule? COc1c(C)cc(-c2nc(-c3ccccc3)c3c(c2C)CO[Si]3(C(C)C)C(C)C)cc1C
Result: 0.239

Query: GET /values?readout=composite z-score&item= C=C(CCCC)/C(=C/C[C@@H](OC(C)=O)c1cccc(OCCO)c1)c1cc(C(=O)OC)ccc1OC
Result: -0.18

Query: Can you look up the measured composite z-score of C=CCNC(=O)[C@H]1[C@@H]2C(=O)O[C@@H](c3ccccc3)[C@@H](c3ccccc3)N2[C@@H](c2ccc(OCCO)cc2)[C@]12C(=O)N(C(=O)OCCOC)c1ccc(C#CCC(C(=O)OC)C(=O)OC)cc12 for me?
Result: 1.42
